Biological target: T1, B7-H3 on CHO-K1 cells stably transfected with B7-H3 (GenScript #M00536) (UniProt Q5ZPR3 29-534, limits assumed)
T1 sequence (looked up): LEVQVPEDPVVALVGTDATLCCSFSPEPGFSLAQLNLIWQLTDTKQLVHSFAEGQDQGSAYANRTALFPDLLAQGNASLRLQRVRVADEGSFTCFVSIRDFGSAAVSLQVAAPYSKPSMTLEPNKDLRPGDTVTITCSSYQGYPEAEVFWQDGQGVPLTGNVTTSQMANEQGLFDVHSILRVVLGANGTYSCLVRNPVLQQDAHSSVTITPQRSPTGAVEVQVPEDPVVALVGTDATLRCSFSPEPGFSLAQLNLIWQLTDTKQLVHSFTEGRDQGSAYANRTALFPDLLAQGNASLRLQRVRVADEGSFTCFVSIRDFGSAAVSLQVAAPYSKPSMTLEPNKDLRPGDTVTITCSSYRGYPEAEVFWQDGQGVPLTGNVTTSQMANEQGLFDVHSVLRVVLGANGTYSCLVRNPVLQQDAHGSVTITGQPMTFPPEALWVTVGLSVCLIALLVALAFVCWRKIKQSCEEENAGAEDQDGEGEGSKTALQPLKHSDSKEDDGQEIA
Test: cell-based or functional assay
PROPERTY: ADCC reporter assay, Max RLU, CHOK1/B7-H3 cells (RLU)
Express it in RLU; write the number only.

According to the records, this binder 40633p1.1.F2 IgG (antibody, V domains shown) VH: EVQLLESGGGLVQPGGSLRLSCVASGLTFNGFAMTWVRQAPGKGLEWVSGISWNSGSIYYADSVKGRFTISRDNSKNTVYLQMSSLRAEDTAIYYCAKNWNDYYNSMDVWGQGTTVTVSS VL: QSVLTQPPSASGTPGQRVTISCSGSRSNIGTKYVYWYQQFPGTAPKLLIYTTDRRPSGVPDRFSGSKSGTSASLAISGLQSEDEADYYCSAWDDRLNAWVFGGGTKLTVL displays ADCC reporter assay, Max RLU, CHOK1/B7-H3 cells of 519000

According to the records, this binder 40633p1.1.D11 IgG (antibody, V domains shown) VH: EVQLLESGGGLVQPGGSLRLSCAASGFTFRSYAMSWVRQAPGKGLEWVAYIGSSGGTTYYADSVKGRFTISRDNSKNTLYLQMNSLRAEDTAVYYCVKESYYYMDVWGQGTTVTVSS VL: QSVLTQPPSASGTPGQRVTISCSATISNIDINRVSWYQQLPGTAPKLLIFNSQRPSGVPDRFSGSKSGTSASLAISGLQSEDEADYYCATWDDSLNSWVFGGGTKLTVL displays ADCC reporter assay, Max RLU, CHOK1/B7-H3 cells of 656000

According to the records, this binder 40579p1.D1 IgG (antibody, V domains shown) VH: EVQLLESGGGLVQPGGSLRLSCAASGFTFSDYYMSWVRQAPGKGLEWVSSISISYGGTTYYADSVKGRFTISRDNSKNTLYLQMNSLRAEDTAVYYCARDRSPYQCRSMDVWGQGTTVTVSS VL: EIVLTQSPGSLSLSPGERATLSCRASQSVNSDLAWYQQKPGQAPRLLIYAASSRATGIPARFSGSGSGTEFTLTISSLQSEDFAVYYCQQYNNWPPLTFGGGTKVEIK displays ADCC reporter assay, Max RLU, CHOK1/B7-H3 cells of 744000
